# Study Target: T1, monkey IL-25 expressed with a C-terminal myc-myc-hexahistidine tag (M. fascicularis (cynomolgus monkey))
# T1 construct: also called Monkey IL-25-MMH; MfIL-25-MMH
# T1 chain: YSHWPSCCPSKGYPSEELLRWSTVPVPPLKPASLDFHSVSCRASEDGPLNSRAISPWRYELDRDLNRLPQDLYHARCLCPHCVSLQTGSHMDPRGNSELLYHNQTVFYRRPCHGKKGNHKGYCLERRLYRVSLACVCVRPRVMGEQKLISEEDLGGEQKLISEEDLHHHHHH
# Run Description: SPR Biacore, antibody captured, 37C;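 note: biacore 4000 surface plasmon resonance biosensor measuring binding of IL-25-MMH to purified anti-IL-25 antibodies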
Listed here are binders together with their documented t½.
Answers without a unit are incomplete; give the number and then its unit.

H4H10907P (antibody, human IgG4, V domains shown, H4H prefix = human IgG4 Fc) VH: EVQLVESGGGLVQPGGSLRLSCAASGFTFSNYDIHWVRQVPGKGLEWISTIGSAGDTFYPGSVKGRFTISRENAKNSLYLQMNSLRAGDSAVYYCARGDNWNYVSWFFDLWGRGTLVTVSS VL: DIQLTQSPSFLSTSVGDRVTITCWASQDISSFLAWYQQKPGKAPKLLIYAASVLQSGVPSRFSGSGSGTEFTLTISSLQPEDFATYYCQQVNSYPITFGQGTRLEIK | 1.9 h

# ---- query binder ----
q: Consider the binder H4H10883P (antibody, human IgG4, V domains shown, H4H prefix = human IgG4 Fc) VH: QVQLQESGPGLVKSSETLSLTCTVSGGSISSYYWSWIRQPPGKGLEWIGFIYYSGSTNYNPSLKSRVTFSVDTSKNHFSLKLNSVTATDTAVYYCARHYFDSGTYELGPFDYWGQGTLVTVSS VL: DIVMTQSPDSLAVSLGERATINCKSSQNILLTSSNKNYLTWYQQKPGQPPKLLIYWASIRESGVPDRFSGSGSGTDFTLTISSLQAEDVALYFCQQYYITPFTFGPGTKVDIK and give its recorded t½.
a: 4.6 h

From: patent US20160083466A1
